The origin of these recorded values is ChEMBL document CHEMBL1811880.

- System: J82
- run description: Anticancer activity against human J82 cells after 3 days by MTT assay
- Assay type: functional, cell-based
- run parameters: J82, 72 h
measurement type: IC50

compound: COc1cc([C@@H]2c3cc4c(cc3[C@@H](O[C@@H]3O[C@@H]5CO[C@@H](C)O[C@H]5[C@H](O)[C@H]3O)[C@H]3COC(=O)[C@H]23)OCO4)cc(OC)c1O [ETOPOSIDE]
system tested: J82
IC50: 0.8 µM
//
compound: O=C1CCCc2nc(-c3ccsc3)c3c(c21)C(=O)C=CC3=O
system tested: J82
IC50: > 100 µM

# batch size: 6; output IC50 per entry
1. COc1ccc(NC2=CC(=O)c3c(c(C)nc4c3C(=O)CCC4)C2=O)cc1
2. COc1ccc(NC2=CC(=O)c3cnc4c(c3C2=O)C(=O)CCC4)cc1
3. Cc1nc2c(c3c1C(=O)C(Nc1ccc(O)cc1)=CC3=O)C(=O)CCC2
4. COc1ccc(NC2=CC(=O)c3c(cnc4c3C(=O)CCC4)C2=O)cc1
5. Cc1nc2c(c3c1C(=O)C(Nc1ccccc1)=CC3=O)C(=O)CCC2
6. O=C1C=C(Nc2ccccc2)C(=O)c2c1cnc1c2C(=O)CCC1

Result block:
1: 3 µM; 2: 4 µM; 3: 1.9 µM; 4: 2.8 µM; 5: 4.2 µM; 6: 8.1 µM

Query block: Looking for the measured IC50 of CN(C1=CC(=O)c2c(cnc3c2C(=O)CCC3)C1=O)c1ccccc1 , can you help?
Result block: 12.9 µM
